- test_target: T1, M. musculus LNK SH2 domain (residues 324–446), wild type (mouse, UniProt O09039 324-446)
- T1 construct: LNK (SH2B3), mouse, SH2 domain with N-terminal helix, residues 324-446; vector pET-50b(+); also called WT LNK SH2; SH2B3 SH2 domain; source: E. coli (tuner (DE3), BL21(DE3) or C43), purified (His-Tag resin, TEV cleavage, SEC); not shown: NusA, N-terminal, cleaved
- T1 sequence (O09039 324-446): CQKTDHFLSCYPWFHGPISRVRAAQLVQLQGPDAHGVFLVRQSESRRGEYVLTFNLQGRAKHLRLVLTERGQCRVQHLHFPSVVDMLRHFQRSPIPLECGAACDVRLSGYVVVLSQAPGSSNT
- test_method_notes: SPR; competition: biotinylated IL6ST pY757 peptide immobilised on a streptavidin chip; 0.1–0.5 μM WT LNK SH2 domain pre-incubated with phosphopeptide and flowed over; 10 mM HEPES pH 7.4, 150 mM NaCl, 3.4 mM EDTA, 0.005% Tween 20; response normalised to LNK only, IC50 fit
- condition_info: both partners purified
Where no end group is shown, it is not given here. [ ]: non-standard residue; d: D form. pY = N[C@@H](Cc1ccc(OP(=O)(O)O)cc1)C(=O)O
recorded_metric: IC50 (nM)
Form entry: value (nM) — number only.

Sample PHLK[pY]LYLVVS (also: phosphotyrosine at 454 (Y5 or Y7), EPOR, intracellular site Y454) [EPOR pY454 phosphopeptide] — what was its IC50?
661

// returns reported IC50 for input FTPD[pY]ELLTEND (JAK2, stretch around Y813; also called WT pY813 peptide) [JAK2 pY813 phosphopeptide (12-mer)]
138
